Measured Percentage (%) bound of compound to 14-3-3σ, ERα 24h values are reported for all entries that follow.
tested_target: 14-3-3σ/ERα (Homo sapiens, UniProt P03372+P31947)
Construct: The 14-3-3 σ isoform (full-length for mass spectrometry and fluorescence anisotropy assays, ΔC for crystallography); made in house; host or cells: E. coli Rosetta 2(DE3)pLysS, pPROEX HTb vector
experiment_notes: Mass spectrometry dose response, compound binding to 14-3-3σ in the presence of ERα phosphopeptide
measurement_setup: 100 nM compound, 100 nM 14-3-3σ, ERα-peptide 2 µM, 24h
Give the number; % is assumed, so skip it.

Reference set (10 entries):
* O=C(CCl)N1CCC2(CC1)CN(C(=O)C1(Nc3ccc(Cl)cc3)CCOCC1)C2 [compound 161] | 39.8
* CC(C)(Nc1ccc(Cl)cc1)C(=O)N1CCC(CNC(=O)CCl)CC1 [compound 84] | 19.0
* O=C(CCl)NCC1CCN(C(=O)C2(Nc3ccc(Cl)cc3)CC2)CC1 [compound 97] | 21.3
* O=C(CCl)N1CCC2(CC1)CCN(C(=O)C1(Nc3ccc(Cl)cc3)CCOCC1)CC2 [compound 170] | 94.0
* CC(C)(Oc1ccc(Cl)cc1)C(=O)N1CCC(CCC(=O)CCl)CC1 [compound 37] | 100
* NC1CCC(Oc2ccc(Cl)cc2)(C(=O)N2CCC(CNC(=O)CCl)CC2)CC1 (centres unmarked) [compound 135] | 64.2
* O=C(CCl)NCC1CCN(C(=O)C2(Nc3ccccc3)CCCC2)CC1 [compound 120] | 4.5
* O=C(CCl)NCCC1CCN(C(=O)C2(Nc3ccc(Cl)cc3)CCOCC2)CC1 [compound 148] | 1.1
* O=C(CCl)NCC1CCN(C(=O)C2(Nc3ccc(Cl)cc3)CCCCC2)CC1 [compound 123] | 63.9
* C=CS(=O)(=O)NCC1CCN(C(=O)C2(Nc3ccc(Cl)cc3)CCOCC2)CC1 [compound 155] | 14.1

Here's the next entry for you.
State the recorded Percentage (%) bound of compound to 14-3-3σ, ERα 24h for this entry: O=C(CCl)NCC1CCN(C(=O)C2(Oc3ccc(Cl)cc3)CC2)CC1 [compound 93] 1.7

====

Measured log10 EC50 values are reported for all entries that follow.
tested_target: 14-3-3σ/ERα (Homo sapiens, UniProt P03372+P31947)
Construct: The 14-3-3 σ isoform (full-length for mass spectrometry and fluorescence anisotropy assays, ΔC for crystallography); made in house; host or cells: E. coli Rosetta 2(DE3)pLysS, pPROEX HTb vector
experiment_notes: Fluorescence anisotropy compound titration, FAM-labeled ERα peptide
Format: binding
measurement_setup: 10 nM ERα-FAM labeled peptide, 1 µM 14-3-3σ, overnight incubation (24 h); read-out: EC50 value ERα (FA compound titration)
Note: values are log10 of EC50 expressed in µM.

Reference set (3 entries):
- O=C(CCl)NC1CC2(CCN(C(=O)C3(Nc4ccc(Cl)cc4)CCOCC3)CC2)C1 [compound 166]: 0.78
- O=C(CCl)N1CCC2(CC1)CN(C(=O)C1(Nc3ccc(Cl)cc3)CCOCC1)C2 [compound 161]: 1.34
- O=C(CCl)NCC1CCN(C(=O)C2(Nc3ccc(Cl)cc3)CC2)CC1 [compound 97]: 1.18

State the recorded log10 EC50 for this entry: CC(C)(Nc1ccc(Cl)cc1)C(=O)N1CCC(CNC(=O)CCl)CC1 [compound 84] 1.74

What would you report for O=C(CCl)NCCC1CCN(C(=O)C2(Nc3ccc(Cl)cc3)CCOCC2)CC1 [compound 148] ? 1.96

What would you report for C=CS(=O)(=O)NCC1CCN(C(=O)C(C)(C)Oc2ccc(Cl)cc2)CC1 [compound 17] ? 1.52

What would you report for O=C(CCl)N1CCC2(CC1)CC(CNC(=O)C1(Nc3ccc(Cl)cc3)CCOCC1)C2 [compound 175] ? 1.18

====

tested_target: 14-3-3σ/C-RAF (Homo sapiens, UniProt P31947)
Construct: The 14-3-3 σ isoform (full-length for mass spectrometry and fluorescence anisotropy assays, ΔC for crystallography); made in house; host or cells: E. coli Rosetta 2(DE3)pLysS, pPROEX HTb vector
Sequence (P31947 1-248): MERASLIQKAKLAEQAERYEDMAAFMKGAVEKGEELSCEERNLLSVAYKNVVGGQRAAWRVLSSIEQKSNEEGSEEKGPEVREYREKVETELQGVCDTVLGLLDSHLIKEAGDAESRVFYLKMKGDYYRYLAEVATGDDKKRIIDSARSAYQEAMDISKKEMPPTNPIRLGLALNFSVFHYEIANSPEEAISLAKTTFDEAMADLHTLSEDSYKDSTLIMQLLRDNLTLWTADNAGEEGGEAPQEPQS
experiment_notes: Fluorescence anisotropy compound titration, FAM-labeled C-RAF peptide
Format: binding
measurement_setup: 10 nM C-RAF-FAM labeled peptide, 5 µM 14-3-3σ, overnight incubation; read-out: EC50 value C-RAF (FA compound titration)
Measured EC50 values are reported for all entries that follow.

* O=C(CCl)NCC1CCN(C(=O)C2(Nc3ccccc3)CCCC2)CC1 | > 150 µM
* O=C(CCl)NCC1CCN(C(=O)C2(Oc3ccc(Cl)cc3)CCCC2)CC1 | 32 µM

Quick check: EC50 on 14-3-3σ/C-RAF (Homo sapiens, UniProt P31947), item O=C(CCl)NCC1CCN(C(=O)C2(Nc3ccc(Cl)cc3)CCCCC2)CC1 ? 59 µM

What would you report for O=C(CCl)NCC1CCN(C(=O)C2(Nc3ccc(Cl)cc3)CC2)CC1 ? 101 µM

What would you report for O=C(CCl)NCC1CCN(C(=O)C2(Nc3ccc(Cl)cc3)CCNCC2)CC1 ? > 150 µM

What would you report for O=C(CCl)N1CCC2(CC1)CC(CNC(=O)C1(Nc3ccc(Cl)cc3)CCOCC1)C2 ? > 150 µM

What would you report for CC(C)(Oc1ccc(Cl)cc1)C(=O)N1CCC(CNC(=O)CCl)CC1 ? 16 µM

What would you report for NC1CCC(Oc2ccc(Cl)cc2)(C(=O)N2CCC(CNC(=O)CCl)CC2)CC1 (stereo not drawn) ? > 150 µM

What would you report for O=C(CCl)NCC1CC2(CCN(C(=O)C3(Nc4ccc(Cl)cc4)CCOCC3)CC2)C1 ? > 150 µM

What would you report for O=C(CCl)NC1CC2(CCN(C(=O)C3(Nc4ccc(Cl)cc4)CCOCC3)CC2)C1 ? 77 µM

What would you report for CC1(C)CC(Nc2ccc(Cl)cc2)(C(=O)N2CCC(CNC(=O)CCl)CC2)CC(C)(C)O1 ? > 150 µM

What would you report for O=C(CCl)NCC1CCN(C(=O)C2(Nc3ccc(Cl)cc3)CCOCC2)CC1 ? > 150 µM

What would you report for CC1CC(Nc2ccc(Cl)cc2)(C(=O)N2CCC(CNC(=O)CCl)CC2)CC(C)O1 (stereo not drawn) ? 86 µM

What would you report for CC1CC(Nc2ccc(Cl)cc2)(C(=O)NCC2CC3(CCN(C(=O)CCl)CC3)C2)CC(C)O1 (stereo not drawn) ? > 150 µM

====

tested_target: 14-3-3σ (Homo sapiens, UniProt P31947)
Construct: The 14-3-3 σ isoform (full-length for mass spectrometry and fluorescence anisotropy assays, ΔC for crystallography); made in house; host or cells: E. coli Rosetta 2(DE3)pLysS, pPROEX HTb vector
experiment_notes: Mass spectrometry dose response, compound binding to 14-3-3σ in the absence of peptide (apo)
measurement_setup: 100 nM compound, 100 nM 14-3-3σ, 16h
Excerpt: Two orthogonal assays were developed for screening. For the primary assay, mass spectrometry (MS) was used to monitor the formation of the covalent bond between the compound and the native cysteine (Cys38 on 14-3-3σ) (Figure 1D). […] As a secondary assay, fluorescence anisotropy (FA) was used. […]
measure_name: Percentage (%) bound of compound to 14-3-3σ, APO 16h
Give the number; % is assumed, so skip it.

• CC(C)(Oc1ccc(Cl)cc1)C(=O)N1CCC(CNC(=O)CCl)CC1 [compound 27] = 1.4
• C=CS(=O)(=O)NCC1CCN(C(=O)C2(Nc3ccc(Cl)cc3)CCOCC2)CC1 [compound 155] = 4.6
• O=C(CCl)N1CCC2(CC1)CCN(C(=O)C1(Nc3ccc(Cl)cc3)CCOCC1)CC2 [compound 170] = 3.4
• O=C(CCl)NCC1CCN(C(=O)C2(Nc3ccc(Cl)cc3)CCOCC2)CC1 [compound 127] = 1.0
• Cl.O=C(CCl)NCC1CCN(C(=O)C2(Nc3ccccc3)CCNCC2)CC1 [compound 133] = 1.2
• O=C(CCl)NCCCC1CCN(C(=O)C2(Nc3ccc(Cl)cc3)CCOCC2)CC1 [compound 149] = 14.2
• O=C(CCl)NCC1CCN(C(=O)C2(Nc3ccccc3)CCCCC2)CC1 [compound 121] = 0

Here's the next entry for you.
State the recorded Percentage (%) bound of compound to 14-3-3σ, APO 16h for this entry: O=C(CCl)NCCC1CCN(C(=O)C2(Nc3ccc(Cl)cc3)CCNCC2)CC1 [compound 151] 1.8
